Value source: PubChem BioAssay (NCATS)

target: Bile acid receptor (Homo sapiens) (UniProt Q96RI1); assay: qHTS assay for small molecule agonists of farnesoid X receptor signaling (AID 588527); details: HEK293T FXR-UAS-bla, beta-lactamase ratio, 16 h; hits give high values;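 further: series mostly up to about 77 µM; 0% = vehicle basal and 100% = reference agonist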
Sequence (Q96RI1 whole entry, looked up): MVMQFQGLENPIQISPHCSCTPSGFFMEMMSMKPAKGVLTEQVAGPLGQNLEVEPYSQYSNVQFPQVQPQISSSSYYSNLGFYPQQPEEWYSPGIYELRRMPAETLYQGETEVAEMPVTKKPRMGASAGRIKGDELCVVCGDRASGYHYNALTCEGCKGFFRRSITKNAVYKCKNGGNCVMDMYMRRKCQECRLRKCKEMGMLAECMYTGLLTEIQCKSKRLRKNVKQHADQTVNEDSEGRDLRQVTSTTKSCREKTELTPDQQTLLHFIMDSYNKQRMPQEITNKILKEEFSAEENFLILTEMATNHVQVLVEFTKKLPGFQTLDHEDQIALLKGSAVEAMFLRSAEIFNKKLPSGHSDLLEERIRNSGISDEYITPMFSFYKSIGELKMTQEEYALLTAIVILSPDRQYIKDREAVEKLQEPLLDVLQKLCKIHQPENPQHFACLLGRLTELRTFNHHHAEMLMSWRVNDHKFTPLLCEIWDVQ
Inconclusive results are not listed.
Property: activation (%)
Answer with a number only, understood to be in %.

Here are 3 compounds together with their reported answers.
INSERT INTO measurements (smiles_data, property, reading_unit, recorded_result) VALUES
  ('O=c1c(-c2ccc(O)cc2)coc2cc(O)cc(O)c12', 'activation', '%', -3.37),
  ('CCCCOC(=O)c1ccc(O)cc1', 'activation', '%', 2.27),
  ('Nc1ccc(C(=O)O)cc1', 'activation', '%', 2.28);

I have this compound here, C[C@]1(O)CC[C@H]2[C@@H]3CCC4=CC(=O)CC[C@]4(C)[C@@]3(F)[C@@H](O)C[C@@]21C , and I need its recorded activation.
-0.176

I have this compound here, CN(C)c1ccc2nc3ccc(=[N+](C)C)cc-3sc2c1 , and I need its recorded activation.
-2.46

I have this compound here, CCCCOC(=O)CC(CC(=O)OCCCC)(OC(C)=O)C(=O)OCCCC , and I need its recorded activation.
1.49
